- System: Plasmodium falciparum
- assay-details: GSK_TCMDC: Inhibition of Plasmodium falciparum 3D7 in whole erythrocytes, using parasite LDH activity as an index of growth.
- Type: functional, organism-based
- measurement-conditions: Plasmodium falciparum, 3D7
Simple rule here: XC50 less than 900 nM is 1.0, otherwise 0.0.

{"compound": "CC(C)C[C@H](Nc1ccc(C#N)c2ccccc12)C(=O)N[C@@H]1CCCc2ccccc21", "system-tested": "Plasmodium falciparum", "label-value": 1.0}
{"compound": "CS(=O)(=O)Nc1ccc2[nH]cc(C3CCN(CC(O)C4CCN(C(=O)/C=C/c5ccc(Cl)c(Cl)c5)CC4)CC3)c2c1 (configuration not stated)", "system-tested": "Plasmodium falciparum", "label-value": 0.0}
{"compound": "CC1CC(C)CN(CC(O)CNC(=O)Nc2ccc(Br)cc2)C1 (configuration not stated)", "system-tested": "Plasmodium falciparum", "label-value": 0.0}

Please look at the following compound next.
Q: Hello, is XC50 of the following compound strictly smaller than 900 nM? COCCNCc1ccc(-c2ccc(CNc3ccc4ncccc4c3)cc2)cc1
Ans: 0.0

---

- System: Plasmodium falciparum
- assay-details: GSK_TCMDC: Inhibition of Plasmodium falciparum 3D7 in whole erythrocytes, using parasite LDH activity as an index of growth.
- Type: functional, organism-based
- measurement-conditions: Plasmodium falciparum, 3D7
result-type: XC50 (nM)
Expressed in nM, but write only the number.

See these solved cases before continuing.
{"smiles-str": "CCCNCc1ccc(-c2ccc(CN(Cc3cnc(C)cn3)C(=O)CC#N)cc2)nc1", "XC50 [nM]": 1220}
{"smiles-str": "COc1cc(C(=O)NCc2nn(CCN3CCC(N4CCCC4)CC3)cc2-c2ccc(Cl)c(Cl)c2)cc(OC)c1OC", "XC50 [nM]": 774}
{"smiles-str": "O=C(Nc1cccc(-c2ccc(-c3nc4cc(F)ccc4[nH]3)cc2)c1)Nc1ccc(Cl)c(Cl)c1", "XC50 [nM]": 139}

Q: Output measured XC50 for this item: Fc1ccc(Nc2ccnc3cc(-c4ccc(CN5CCOCC5)o4)ccc23)c(Cl)c1
Ans: 756

---

- Test system: Plasmodium falciparum
- assay-details: GSK_TCMDC: Inhibition of Plasmodium falciparum 3D7 in whole erythrocytes, using parasite LDH activity as an index of growth.
- Format: functional, organism-based
- measurement-conditions: Plasmodium falciparum, 3D7
result-type: XC50 (nM)
Expressed in nM, but write only the number.

See these solved cases before continuing.
{"compound": "CCNc1cc(C(=O)N[C@@H](Cc2ccccc2)[C@H](O)CNC(C)(C)CCCC(C)C)cc(N2CCCCS2(=O)=O)c1", "system-tested": "Plasmodium falciparum", "reading-unit": "nM", "XC50": 446}
{"compound": "COc1cccc(Cc2cnc3nc(N)nc(N)c3c2C)c1", "system-tested": "Plasmodium falciparum", "reading-unit": "nM", "XC50": 173}
{"compound": "CC(C)C[C@H](NC(=O)c1ccc(OCCN2CCOCC2)cc1)C(=O)N[C@H](/C=N/N(C)C(=O)c1ccccc1)CCc1ccccc1", "system-tested": "Plasmodium falciparum", "reading-unit": "nM", "XC50": 269}
{"compound": "COc1ccc2nc(/N=C3\\NC(c4ccccn4)(c4ccccn4)C(=O)N3C)[nH]c2c1", "system-tested": "Plasmodium falciparum", "reading-unit": "nM", "XC50": 586}
{"compound": "Cc1cc(=NN=Cc2ccccc2Cl)c2cc(C(F)(F)F)ccc2[nH]1", "system-tested": "Plasmodium falciparum", "reading-unit": "nM", "XC50": 858}

Q: Output measured XC50 for this item: CC(C)c1ccc(NC(=O)N[C@H]2CCN(CCCCCNC(=O)/C=C/c3ccc(Cl)c(Cl)c3)C2)cc1
Ans: 710

Q: Output measured XC50 for this item: CN1CCN(c2nc(NCCNc3ccc([N+](=O)[O-])cc3)c3ccccc3n2)CC1
Ans: 1320

Q: Output measured XC50 for this item: CCCCCCCCCCN1C(=O)C2C(CCCCNC(C)=O)NC3(C(=O)N(Cc4ccc(C(C)(C)C)cc4)c4ccccc43)C2C1=O (stereo unspecified)
Ans: 993

Q: Output measured XC50 for this item: C=CCN(c1nc(NC)nc(NCc2c(OC)cccc2OC)n1)C1CCCC1
Ans: 1460

Q: Output measured XC50 for this item: Cc1ccc(-c2noc(COc3ccccc3C(=O)NC3CCCC3)n2)cc1
Ans: 882

Q: Output measured XC50 for this item: CC(C)COc1ccc(Cl)cc1Cc1ccc(-c2nc3cnc4ccccc4c3[nH]2)o1
Ans: 1260

Q: Output measured XC50 for this item: Cc1ccc(CNC(=O)c2ccc(CN3CCCN(Cc4ccsc4)CC3)cc2)cc1
Ans: 868

Q: Output measured XC50 for this item: CC(C)Cn1c2ccccc2c2nc3nc(N)nc(N)c3nc21
Ans: 725

Q: Output measured XC50 for this item: O=C1CCCN1CCCNCc1ccc(-c2ccc(-c3nc4cc(C(F)(F)F)ccc4[nH]3)cc2)cc1
Ans: 583

Q: Output measured XC50 for this item: Cc1cccc(C)c1CNc1ccnc2cc(Br)ccc12
Ans: 172

Q: Output measured XC50 for this item: CC(=O)N1N=C(c2ccc(Cl)cc2)Sc2c1nc(C1CCCCC1)n2C(C)=O
Ans: 249

Q: Output measured XC50 for this item: COc1ccc2ncc(F)c([C@H](O)CN3CCC(NCc4cc5c(cn4)OCCO5)CC3)c2c1
Ans: 292

Q: Output measured XC50 for this item: Cc1ccc2[nH]c(-c3cc(-c4ccc(OCc5ccccc5)cc4)cnc3N)nc2c1
Ans: 1680

Q: Output measured XC50 for this item: O=S(=O)(Nc1cc2c(cc1O)CCN(C1CCC1)CC2)c1ccc(Oc2ccc(F)cc2)cc1
Ans: 775

Q: Output measured XC50 for this item: CC(C)c1ccc2c(c1)C(=O)c1ccc(C(=O)O)cc1S2(=O)=O
Ans: 472
